Biological target: T1, CD27 protein (His-tagged, Sino Biological Inc. 10039-H08B1) (human, UniProt P26842 20-192)
T1 construct: bought; coated onto ELISA plates; also called human CD27; recombinant protein; not shown: His tag
T1 sequence (looked up): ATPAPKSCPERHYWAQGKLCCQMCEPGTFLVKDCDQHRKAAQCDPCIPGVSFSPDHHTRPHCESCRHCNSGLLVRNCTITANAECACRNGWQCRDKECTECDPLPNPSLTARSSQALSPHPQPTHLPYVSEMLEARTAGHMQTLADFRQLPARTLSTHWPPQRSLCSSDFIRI
Assay: ELISA on coated His-tagged CD27; note: test concentration or dose not given here
Each entry below lists one item and its recorded ELISA [abs. corr.] value.
Give just the number in abs. corr.; leave the unit off.

P018.S.08.A.E02 (antibody, V domains shown, V regions on human Ig constant parts; also called AB27_139) VH: QSLEESGGRLVTPGGSLTLTCTVSGIDLSSYDMNWVRQAPGEGLEWIGAISTGGDTHYTNWAKGRFTISKTSTTVDLKMTSLTAADTATYFCARGYYTLALWGQGTLVTVSS VL: DPVLTQTPASVEAAVGGTVTIKCQASQSINSWLSWYQQKPGQPPKRLIYDTSTLESGVPSRFSGGESGTEFTLTISDLESDDAATYYCQSYYYITSSYAITFGGGTEVVVK    3.33

Now consider the entry below.
Looking up P018.S.01.A.E04 (antibody, V domains shown, V regions on human Ig constant parts; also called AB27_16) VH: QEQLKESGGGLVTPGGTLTLTCTASGSDISNYGVSWVRQAPGKGLEWIGFINADGGGTWYASWVKGRFTISRTSTTVELKMTSLTTEHTATYFCATYGGGGGHNLWGPGTLVTVSS VL: AQVLTQTPSSVSAAVGGTVTINCQSSQSVYDNNALAWYQQKPGQPPKLLLYSASRLASGVPSRFKGSGSGTQFTLTISDLESDDAATYYCAAYYGSGDIFAFGGGTEVVVE , I see its ELISA [abs. corr.] listed as 3.28
